The measured values listed here are drawn from PubChem BioAssay (EPA / NIEHS).

Read-out: CD40, CD40 (gene 958)
Test: BSK_SAg_CD40: BioMAP Diversity Plus: SAg Assay for CD40 Biomarker Activity (AID 2283088)
Conditions: primary human HUVEC with PBMC; actives raise or lower the signal
Calls of active or inactive are those of the source. Rule for the calls: active = hit-call score of the fitted dose curve at least 0.9, where 1 is the maximum; inactive = score below 0.9.
Outcome codes: active, inactive

{"molecule": "CCC(=O)OCC=Cc1ccccc1", "class-name": "inactive"}
{"molecule": "O=S1(=O)CC(Cl)(Cl)C(Cl)(Cl)C1", "class-name": "active"}
{"molecule": "CC(C)Cc1ccc(C(C)C(=O)O)cc1 (centres undefined)", "class-name": "inactive"}
{"molecule": "C#C[C@]1(O)CC[C@H]2[C@@H]3CCc4cc(O)ccc4[C@H]3CC[C@@]21C", "class-name": "inactive"}
{"molecule": "CC(=O)c1ccc(C)cc1", "class-name": "inactive"}
{"molecule": "CCn1cc(C(=O)O)c(=O)c2ccc(C)nc21", "class-name": "inactive"}
{"molecule": "C=C1CC/C=C(\\C)CC[C@@H]2[C@@H]1CC2(C)C", "class-name": "active"}
{"molecule": "OCCN1CCOCC1", "class-name": "inactive"}
{"molecule": "COC(=O)c1ccc(C(=O)OC)cc1", "class-name": "inactive"}
{"molecule": "C=CC(=O)OCC(CO)(COC(=O)C=C)COC(=O)C=C", "class-name": "active"}
{"molecule": "c1ccc(OCCOc2ccccc2)cc1", "class-name": "inactive"}
{"molecule": "COc1ccccc1NC(=O)CC(C)=O", "class-name": "inactive"}
{"molecule": "CCCCCCCCCC(=O)OCC", "class-name": "inactive"}
{"molecule": "c1ccc2c(c1)-c1ccc3ccc4cccc5cc-2c1c3c45", "class-name": "active"}
